- tested target: ROCK2 (Homo sapiens)
- Construct: purchased Upstate/Chemicon 14-451
- experiment description: Rho kinase inhibition assay (IMAP fluorescence polarization), ROCK2
- Format: biochemical
- assay conditions: 10 μM ATP; read-out: ROCK2 Ki, Avg

molecule	Ki, nM
COc1c(CN2CC[C@@H](Nc3cccc4cnccc34)C2)cccc1NS(C)(=O)=O [Compound 2.096]	9.6
CS(=O)(=O)Nc1cccc(CN2CC[C@@H](Nc3cccc4cnccc34)C2)c1 [Compound 2.038]	6.3
O=C(Nc1cccc(CN2CCC[C@@H](Nc3ccc4[nH]ncc4c3)C2)c1)N1CCCC1 [Compound 1.266]	17.1
O=S(=O)(Nc1cccc(CN2CCC[C@H](Nc3ccc4[nH]ncc4c3)C2)c1)N1CCCCC1 [Compound 1.270]	9.9
Cc1ccc(S(=O)(=O)Nc2cc(CN3CCC[C@@H](Nc4ccc5[nH]ncc5c4)C3)ccc2C)cc1 [Compound 1.260]	7.1
NC(=O)COc1cccc(CN2CCC[C@H](Nc3ccc4[nH]ncc4c3)C2)c1 [Compound 1.195]	10.3
OCCn1ccc2ccc(CN3CCC[C@@H](Nc4ccc5[nH]ncc5c4)C3)cc21 [Compound 1.108]	6.5

----------
- tested target: ROCK2 (Homo sapiens, UniProt O75116)
- Construct: purchased Upstate/Chemicon 14-451
- Sequence (O75116 11-552 limits assumed): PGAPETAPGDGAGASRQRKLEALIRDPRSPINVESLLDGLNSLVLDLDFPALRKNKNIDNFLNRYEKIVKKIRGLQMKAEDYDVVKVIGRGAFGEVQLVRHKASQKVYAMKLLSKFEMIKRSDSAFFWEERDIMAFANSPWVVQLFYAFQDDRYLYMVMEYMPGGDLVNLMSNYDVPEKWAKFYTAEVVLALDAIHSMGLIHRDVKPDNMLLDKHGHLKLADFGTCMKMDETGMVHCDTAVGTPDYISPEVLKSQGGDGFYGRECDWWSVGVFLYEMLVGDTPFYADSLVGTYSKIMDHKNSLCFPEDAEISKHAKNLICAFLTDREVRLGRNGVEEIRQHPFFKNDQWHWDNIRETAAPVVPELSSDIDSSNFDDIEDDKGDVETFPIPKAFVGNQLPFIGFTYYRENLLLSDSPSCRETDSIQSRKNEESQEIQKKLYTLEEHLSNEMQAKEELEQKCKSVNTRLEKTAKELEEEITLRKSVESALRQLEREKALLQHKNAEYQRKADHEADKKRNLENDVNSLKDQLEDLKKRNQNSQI
- experiment description: Rho kinase inhibition assay (IMAP fluorescence polarization), ROCK2;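 further: kinase reaction started with 10 µM ATP and run 60 min at room temperature, then phosphorylated substrate captured on IMAP beads for 30 min and fluorescence polarization read in mP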
- Assay type: biochemical
- assay conditions: 10 μM ATP; read-out: ROCK2 Ki, Avg
Entries and their log10(Ki)
parameter: log10(Ki) (log10 of the value in nM)

compound	experimental result
Oc1cccc(CN2CCC[C@H](Nc3ccc4[nH]ncc4c3)C2)c1	0.46
OCCOc1cccc(CN2CCC[C@H](Nc3cccc4cnccc34)C2)c1	2.37
Cc1cccc(CN2CCC[C@@H](Nc3ccc4[nH]ncc4c3)C2)c1C	1.31
c1cc2ccc(CN3CCC[C@H](Nc4ccc5[nH]ncc5c4)C3)cc2[nH]1	0.56
OC[C@@H](O)COc1cccc(CN2CCC[C@H](Nc3ccc4[nH]ncc4c3)C2)c1	1.55
OCCn1ccc2ccc(CN3CCC[C@H](Nc4ccc5[nH]ncc5c4)C3)cc21	0.98
COc1ccc(CN2CCC[C@H](Nc3cccc4cnccc34)C2)cc1	2.26
OCCn1ccc2cc(CN3CCC[C@H](Nc4ccc5[nH]ncc5c4)C3)ccc21	1.36
O=C(COc1cccc(CN2CCC[C@@H](Nc3ccc4[nH]ncc4c3)C2)c1)Nc1cccnc1	1.24
Cc1cccc(CN2CCC[C@@H](Nc3ccc4[nH]ncc4c3)C2)c1	1.58
OCC1COc2ccc(CN3CCC[C@@H](Nc4ccc5[nH]ncc5c4)C3)cc2O1 (some centres unmarked)	1.77
O=C(O)COc1cccc(CN2CC[C@@H](Nc3cccc4cnccc34)C2)c1	1.38
CC1CNCCN1S(=O)(=O)c1cccc2cnccc12 (centres unmarked) [Compound H7, reference compound]	2.10
CCN(CC)C(=O)Nc1cccc(CN2CCC[C@@H](Nc3ccc4[nH]ncc4c3)C2)c1	1.38

----------
- tested target: ROCK1 (Homo sapiens, UniProt Q13464)
- Construct: purchased Upstate/Chemicon 14-601
- Sequence (Q13464 17-535 limits assumed): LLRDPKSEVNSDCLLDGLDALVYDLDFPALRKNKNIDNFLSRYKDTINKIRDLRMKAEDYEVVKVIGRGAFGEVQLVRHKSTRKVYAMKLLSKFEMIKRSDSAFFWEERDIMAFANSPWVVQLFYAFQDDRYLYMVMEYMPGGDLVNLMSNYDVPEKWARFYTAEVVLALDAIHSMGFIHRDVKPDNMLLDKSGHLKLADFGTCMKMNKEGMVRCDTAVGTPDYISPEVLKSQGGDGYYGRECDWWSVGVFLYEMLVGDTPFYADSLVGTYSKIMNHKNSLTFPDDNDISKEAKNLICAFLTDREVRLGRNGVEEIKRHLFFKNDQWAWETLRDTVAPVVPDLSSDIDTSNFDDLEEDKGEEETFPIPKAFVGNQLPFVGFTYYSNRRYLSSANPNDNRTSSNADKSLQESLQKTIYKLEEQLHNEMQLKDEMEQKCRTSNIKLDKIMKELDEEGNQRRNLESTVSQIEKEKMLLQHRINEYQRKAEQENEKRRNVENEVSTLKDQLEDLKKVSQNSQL
- experiment description: Rho kinase inhibition assay (IMAP fluorescence polarization), ROCK1
- Type: biochemical
- assay conditions: Avg, 10 μM ATP
parameter: Ki

compound	tested target	experimental result
O=C(OCCOc1cccc(CN2CCC[C@@H](Nc3ccc4[nH]ncc4c3)C2)c1)c1ccccc1	ROCK1 (Homo sapiens, UniProt Q13464)	605 nM
CS(=O)(=O)Cc1cccc(CN2CCC[C@H](Nc3ccc4[nH]ncc4c3)C2)c1	ROCK1 (Homo sapiens, UniProt Q13464)	264 nM
c1cc2c(cc1CN1CCC[C@H](Nc3ccc4[nH]ncc4c3)C1)OCCO2	ROCK1 (Homo sapiens, UniProt Q13464)	95.2 nM
FC(F)(F)c1cccc(CN2CC[C@@H](Nc3cccc4cnccc34)C2)c1	ROCK1 (Homo sapiens, UniProt Q13464)	113 nM
Cc1ccc(CN2CCC[C@H](Nc3ccc4[nH]ncc4c3)C2)cc1	ROCK1 (Homo sapiens, UniProt Q13464)	36.3 nM
CSc1ccc(CN2CCCC(Nc3ccc4[nH]ncc4c3)C2)cc1 (stereo not drawn)	ROCK1 (Homo sapiens, UniProt Q13464)	30.5 nM
C#Cc1ccc(CN2CCC[C@@H](Nc3ccc4[nH]ncc4c3)C2)cc1	ROCK1 (Homo sapiens, UniProt Q13464)	14.3 nM
Cc1ccc(CN2CCC[C@H](Nc3ccc4[nH]ncc4c3)C2)cc1O	ROCK1 (Homo sapiens, UniProt Q13464)	22.8 nM
Fc1ccc(CN2CCC[C@H](Nc3ccc4[nH]ncc4c3)C2)cc1F	ROCK1 (Homo sapiens, UniProt Q13464)	33.7 nM
c1ccc(Cn2ccnc2CN2CCC[C@@H](Nc3ccc4[nH]ncc4c3)C2)cc1	ROCK1 (Homo sapiens, UniProt Q13464)	2130 nM
Cc1ccc(CN2CCC[C@@H](Nc3ccc4[nH]ncc4c3)C2)c(C)c1	ROCK1 (Homo sapiens, UniProt Q13464)	25.8 nM
CSc1ccc(CN2CCC[C@@H](Nc3ccc4[nH]ncc4c3)C2)cc1	ROCK1 (Homo sapiens, UniProt Q13464)	40.1 nM
Cc1ccc(CN2CC[C@@H](Nc3cccc4cnccc34)C2)cc1OCC(N)=O	ROCK1 (Homo sapiens, UniProt Q13464)	15 nM
Cc1ccc(CN2CCC[C@H](Nc3ccc4[nH]ncc4c3)C2)c(C)c1	ROCK1 (Homo sapiens, UniProt Q13464)	45.4 nM
COc1ccc(CN2CCC[C@@H](Nc3ccc4[nH]ncc4c3)C2)cc1	ROCK1 (Homo sapiens, UniProt Q13464)	91.7 nM
